# Test system: A2780 (Ovarian Carcinoma)
# Test Details: combination Emax (second highest fraction inhibited in the dose matrix, 72 h); higher = more inhibition; extreme values may be limits of the assay
Hi there, I'd appreciate the recorded combination Emax for every entry that follows.
// print number alone

Query: Find the measured combination Emax: item CC1(C)CCC(CN2CCN(c3ccc(C(=O)NS(=O)(=O)c4ccc(NCC5CCOCC5)c([N+](=O)[O-])c4)c(Oc4cnc5[nH]ccc5c4)c3)CC2)=C(c2ccc(Cl)cc2)C1 [Venetoclax] + CS(=O)(=O)CCNCc1ccc(-c2ccc3ncnc(Nc4ccc(OCc5cccc(F)c5)c(Cl)c4)c3c2)o1 [Lapatinib] (first compound max 1 µM, 7x7, partner max 10 µM) , target or system A2780 (Ovarian Carcinoma).
Reply: 0.478

Query: Find the measured combination Emax: item CN(CCO)CC[C@H](CSc1ccccc1)Nc1ccc(S(=O)(=O)NC(=O)c2ccc(N3CCC([C@@H](O)c4ccccc4-c4ccc(Cl)cc4)CC3)cc2)cc1S(=O)(=O)C(F)(F)F [AZD4320] + C[C@@H]1COCCN1C2=NC(=NC(=C2)C3(CC3)[S@](=N)(=O)C)C4=C5C=CNC5=NC=C4 [AZD6738] (first compound max 1 µM, 7x7, partner max 10 µM) , target or system A2780 (Ovarian Carcinoma).
Reply: 0.799

Query: Find the measured combination Emax: item CN(C)CCCOc1ccc(-c2ccc3ncc4c(c3c2)n(C2CCOCC2)c(=O)n4C)cn1 [AZD0156] + C[C@@H]1COCCN1C2=NC(=NC(=C2)C3(CC3)[S@](=N)(=O)C)C4=C5C=CNC5=NC=C4 [AZD6738] (first compound max 1 µM, 7x7, partner max 10 µM) , target or system A2780 (Ovarian Carcinoma).
Reply: 0.81
